test system: biotinyl-Val-oxazolone; assay: self-aminoacylation, catalytic enhancement (BVO) (fold over background); higher = more active; k-Seq, kA / k0A0; sequences stand for … in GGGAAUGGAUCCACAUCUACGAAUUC…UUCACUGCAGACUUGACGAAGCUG
Variants at the floor of the assay were thinned out.
Classes by self-aminoacylation: low interval = under 1, middle interval = from 1 up to 3, high interval = 3 and over

[ask] Pick a category. Item: AUUACCCUGGUAAUCUAGUGA [Fam2.1 aminoacylation ribozyme variant]
[reply] high interval

[ask] Pick a category. Item: CUCCUCCAAACAAUCGGUCUG [Fam1A.1 aminoacylation ribozyme variant]
[reply] low interval

[ask] Pick a category. Item: AUUCAGCUAGGCCAUCGGGUG [Fam2.2 aminoacylation ribozyme variant]
[reply] high interval

[ask] Pick a category. Item: AUCACCCUGGUCCUCGAGUGA [Fam2.1 aminoacylation ribozyme variant]
[reply] high interval

[ask] Pick a category. Item: AUGUUAGCUAAUAGUCGCAAG [Fam3.1 aminoacylation ribozyme variant]
[reply] middle interval

[ask] Pick a category. Item: AAGUUUCUUAAUAGUCGCAAG [Fam3.1 aminoacylation ribozyme variant]
[reply] middle interval

[ask] Pick a category. Item: AAGUUUGCUAAUAGUGGCAAU [Fam3.1 aminoacylation ribozyme variant]
[reply] middle interval

[ask] Pick a category. Item: CAACACUUCAGGCAAUCGGUC [Fam1B.1 aminoacylation ribozyme variant]
[reply] middle interval

[ask] Pick a category. Item: CCACACUUCAAGUAAUCGGUA [Fam1B.1 aminoacylation ribozyme variant]
[reply] low interval

[ask] Pick a category. Item: AUCACCCUGGGCAUCGAGUGA [Fam2.1 aminoacylation ribozyme variant]
[reply] high interval

[ask] Pick a category. Item: AAGUUUGCUAAUAGUCGCACC [Fam3.1 aminoacylation ribozyme variant]
[reply] low interval

[ask] Pick a category. Item: AAGUUUAUUAAUAGUCGCAAG [Fam3.1 aminoacylation ribozyme variant]
[reply] middle interval

[ask] Pick a category. Item: AUUUCCGUGGUCAUCGAGUGA [Fam2.1 aminoacylation ribozyme variant]
[reply] high interval

[ask] Pick a category. Item: AUUACCGUGAUCAUCGAGUGA [Fam2.1 aminoacylation ribozyme variant]
[reply] high interval

[ask] Pick a category. Item: AGUCACAUAGGUCAUCGGGUG [Fam2.2 aminoacylation ribozyme variant]
[reply] high interval

[ask] Pick a category. Item: AUUACCCUGGUCCUCGAGUGC [Fam2.1 aminoacylation ribozyme variant]
[reply] middle interval

[ask] Pick a category. Item: CUACUUCAAACAAUCGGUAUG [Fam1A.1 aminoacylation ribozyme variant]
[reply] low interval

[ask] Pick a category. Item: AGUACCCUGUUCAUCGAGUGA [Fam2.1 aminoacylation ribozyme variant]
[reply] middle interval

[ask] Pick a category. Item: AUUAGCCUGGUCACCGAGUGA [Fam2.1 aminoacylation ribozyme variant]
[reply] high interval

[ask] Pick a category. Item: AAAUUUGGUAAUAGUCGCAAG [Fam3.1 aminoacylation ribozyme variant]
[reply] middle interval

[ask] Pick a category. Item: AAUACCCUGGUAAUCGAGUGA [Fam2.1 aminoacylation ribozyme variant]
[reply] high interval

[ask] Pick a category. Item: CCACAUUUCUAGCAAUCGGUC [Fam1B.1 aminoacylation ribozyme variant]
[reply] middle interval

[ask] Pick a category. Item: AAAUUUGCUUAUAGUCGCAAG [Fam3.1 aminoacylation ribozyme variant]
[reply] middle interval

[ask] Pick a category. Item: AUUCACAUAGGUCAUCGGAUG [Fam2.2 aminoacylation ribozyme variant]
[reply] low interval

[ask] Pick a category. Item: UUUCACCUAGGUCAUUGGGUG [Fam2.2 aminoacylation ribozyme variant]
[reply] middle interval

[ask] Pick a category. Item: AUUCACCUAGGUCAUCGGUGG [Fam2.2 aminoacylation ribozyme variant]
[reply] middle interval

[ask] Pick a category. Item: AAGUUAGCUAAUAGUCGCAGG [Fam3.1 aminoacylation ribozyme variant]
[reply] middle interval

[ask] Pick a category. Item: CCACACUUCUAGCACUCGGUC [Fam1B.1 aminoacylation ribozyme variant]
[reply] low interval

[ask] Pick a category. Item: AUUCGCUUAGGUCAUCGGGUG [Fam2.2 aminoacylation ribozyme variant]
[reply] high interval
